- Test system: CCRF-CEM
- ASSAY INFO: In vitro inhibition of CEM cell proliferation.
- Type: functional
- TEST CONTEXT: Homo sapiens
Provide the reported CC50 of each item.
One number for each entry, in µM.

Some molecules with recorded CC50:
# SMILES RECORD, CC50 [µM]
data = [
    ("O=C1c2ccccc2N(Cc2ccc(Cl)cc2)S(=O)(=O)N1Cc1ccccc1", 19.7),
    ("O=C1c2ccccc2N(COCc2ccccc2)S(=O)(=O)N1Cc1ccccc1", 25),
]

For every item below, please supply its CC50.
1. O=C1c2ccccc2N(Cc2ccc(Cl)c(Cl)c2)S(=O)(=O)N1Cc1ccccc1
2. O=C1c2ccccc2N(Cc2cccc(Cl)c2)S(=O)(=O)N1Cc1ccccc1
3. O=C(OCOCN1c2ccccc2C(=O)N(Cc2ccccc2)S1(=O)=O)c1ccccc1
4. O=C1c2ccccc2N(Cc2ccc(Cl)cc2)S(=O)(=O)N1Cc1ccc(Cl)cc1
5. O=C1c2ccccc2N(COCc2ccccc2)S(=O)(=O)N1COCc1ccccc1
6. O=S1(=O)N=C(OCc2ccccc2)c2ccccc2N1Cc1ccc(Cl)c(Cl)c1
7. O=C1c2ccccc2N(Cc2ccccc2Cl)S(=O)(=O)N1COCc1ccccc1

[A]
1. 16.4
2. 21.3
3. 100
4. 35.8
5. 27.7
6. 30.5
7. 22.2

For every item below, please supply its CC50.
1. O=C1c2ccccc2N(Cc2ccccc2)S(=O)(=O)N1Cc1ccccc1
2. C#CCOCN1c2ccccc2C(=O)N(Cc2ccccc2)S1(=O)=O

[A]
1: 108; 2: 23

* * *

- Tested on: Human immunodeficiency virus 1
- ASSAY INFO: In vitro inhibition of HIV-1(IIIB) cytopathicity in CEM cells.
- Type: functional, organism-based
- TEST CONTEXT: Human immunodeficiency virus 1, CCRF-CEM
Provide the reported EC50 of each item.
One number for each entry, in µM.

Some compounds with recorded EC50:
# SMILES RECORD, MEASUREMENT UNITS, EC50
data = [
    ("O=C1c2ccccc2N(COCc2ccccc2)S(=O)(=O)N1COCc1ccccc1", "µM", 25),
    ("O=C1c2ccccc2N(Cc2ccccc2Cl)S(=O)(=O)N1Cc1ccccc1Cl", "µM", 15),
    ("O=C1c2ccccc2N(Cc2ccc(Cl)cc2)S(=O)(=O)N1Cc1ccccc1", "µM", 6.5),
    ("O=C1c2ccccc2N(Cc2ccccc2)S(=O)(=O)N1Cc1ccccc1", "µM", 25),
    ("O=C1c2ccccc2N(Cc2ccccc2)S(=O)(=O)N1Cc1ccc(Cl)cc1", "µM", 5),
    ("O=C1c2ccccc2N(Cc2cccc(Cl)c2)S(=O)(=O)N1Cc1ccccc1", "µM", 5.5),
]

Next item in the queue.
[Q] Recorded EC50 for O=C1c2ccccc2N(Cc2ccccc2)S(=O)(=O)N1COCc1ccccc1 , please?
[A] 15

* * *

- Test system: HEL
- ASSAY INFO: In vitro alteration in cell morphology in HEL cells.
- Type: functional
- TEST CONTEXT: Homo sapiens
Provide the reported MCC of each item.
Numbers only, in µM.

Some molecules with recorded MCC:
# SMILES RECORD, TARGET DESC, MEASUREMENT UNITS, MCC
rows = [
    ("O=S1(=O)N=C(OCc2ccccc2)c2ccccc2N1Cc1ccc(Cl)c(Cl)c1", "HEL", "µM", 200),
    ("O=C1c2ccccc2N(Cc2ccccc2)S(=O)(=O)N1COCc1ccccc1", "HEL", "µM", 49),
    ("O=C1c2ccccc2N(Cc2ccccc2Cl)S(=O)(=O)N1Cc1ccccc1", "HEL", "µM", 200),
]

For every item below, please supply its MCC.
1. O=C1c2ccccc2N(Cc2ccccc2)S(=O)(=O)N1Cc1ccc(Cl)cc1
2. O=C1c2ccccc2N(Cc2ccc(Cl)c(Cl)c2)S(=O)(=O)N1Cc1ccccc1

[A]
20
200

For every item below, please supply its MCC.
1. O=S1(=O)N=C(OCc2ccccc2)c2ccccc2N1Cc1ccccc1
2. C#CCOCN1c2ccccc2C(=O)N(Cc2ccccc2)S1(=O)=O
3. O=C(OCOCN1c2ccccc2C(=O)N(Cc2ccccc2)S1(=O)=O)c1ccccc1
4. O=C1c2ccccc2N(Cc2ccccc2Cl)S(=O)(=O)N1COCc1ccccc1

[A]
1: 200; 2: 140; 3: 110; 4: 200

* * *

- System: Human alphaherpesvirus 3
- ASSAY INFO: In vitro inhibition of Thymidine Kinase deficient Varicella Zoster Virus (YS/R) plaque formation.
- Assay type: functional, organism-based
MEASURE: pIC50
Give bare numbers, as −log10 of the molar value.

Some molecules with recorded pIC50:
# SMILES RECORD, pIC50
data = [
    ("O=C1c2ccccc2N(Cc2ccc(Cl)c(Cl)c2)S(=O)(=O)N1Cc1ccccc1", 5.35),
    ("O=C1c2ccccc2N(Cc2ccccc2Cl)S(=O)(=O)N1COCc1ccccc1", 5.10),
    ("O=C1c2ccccc2N(Cc2ccc(Cl)cc2)S(=O)(=O)N1Cc1ccccc1", 5.62),
]

Next item in the queue.
[Q] Lab note: need pIC50 with Human alphaherpesvirus 3 for entry O=S1(=O)N=C(OCc2ccccc2)c2ccccc2N1Cc1ccccc1 , please look it up.
[A] 4.70

* * *

- Test system: CCRF-CEM
- ASSAY INFO: In vitro inhibition of CEM cell proliferation.
- Type: functional
- TEST CONTEXT: Homo sapiens
Exam item: assign Yes to entries whose CC50 is below 40 µM and No to entries at or above 40 µM. Note that a value of exactly 40 µM receives No.

Please review the entries below; each comes with its answer.
# SMILES RECORD, LABEL VALUE
rows = [
    ("O=C1c2ccccc2N(Cc2ccccc2Cl)S(=O)(=O)N1Cc1ccccc1", "Yes"),
    ("O=S1(=O)N=C(OCc2ccccc2)c2ccccc2N1Cc1ccccc1", "Yes"),
    ("O=C1c2ccccc2N(Cc2ccccc2)S(=O)(=O)N1COCc1ccccc1", "No"),
]

[Q] CC50 under 40 µM? Item: O=C1c2ccccc2N(Cc2ccccc2)S(=O)(=O)N1Cc1ccc(Cl)cc1
[A] Yes

* * *

- ASSAY INFO: concentration required to reduce virus Human Cytomegalovirus (Davis)plaque formation by 50%
- Type: functional
pEC50: −log10 of the molar value.
MEASURE: pEC50

[Q] Recorded pEC50 for O=S1(=O)N=C(OCc2ccc(Cl)cc2)c2ccccc2N1Cc1ccc(Cl)cc1 , please?
[A] < 4.30

* * *

Provide the reported log10 IC50 of each item.
- Test system: Human alphaherpesvirus 3
- ASSAY INFO: In vitro inhibition of Thymidine Kinase deficient Varicella Zoster Virus (YS/R) plaque formation.
- Format: functional, organism-based
A value of 2 here means IC50 of 100 in µM, since values are log10.

Some compounds with recorded log10 IC50:
# COMPOUND, OBSERVED
rows = [
    ("C#CCOCN1c2ccccc2C(=O)N(Cc2ccccc2)S1(=O)=O", 1.56),
    ("O=C(OCOCN1c2ccccc2C(=O)N(Cc2ccccc2)S1(=O)=O)c1ccccc1", 1.41),
    ("O=C1c2ccccc2N(Cc2ccccc2)S(=O)(=O)N1Cc1ccc(Cl)cc1", 0.41),
    ("O=C1c2ccccc2N(COCc2ccccc2)S(=O)(=O)N1COCc1ccccc1", 1.00),
    ("O=C1c2ccccc2N(Cc2ccc(Cl)cc2)S(=O)(=O)N1Cc1ccc(Cl)cc1", 0.38),
]

For every item below, please supply its log10 IC50.
1. Nc1nc2c(ncn2COCCO)c(=O)[nH]1 [ACYCLOVIR]
2. O=C1c2ccccc2N(Cc2ccccc2)S(=O)(=O)N1Cc1ccccc1
3. O=C1c2ccccc2N(Cc2ccccc2Cl)S(=O)(=O)N1Cc1ccccc1Cl

[A]
1.80
0.78
0.70

* * *

- System: Human betaherpesvirus 5
- ASSAY INFO: In vitro inhibition of HCMV (Davis) plaque formation.
- Assay type: functional, organism-based
Exam item: assign satisfied to entries whose IC50 is below 10 µM and not satisfied to entries at or above 10 µM. Note that a value of exactly 10 µM receives not satisfied.

# MOLECULE, TARGET DESC, LABEL VALUE
records = [
    ("O=C1c2ccccc2N(Cc2ccc(Cl)c(Cl)c2)S(=O)(=O)N1Cc1ccccc1", "Human betaherpesvirus 5", "satisfied"),
]

[Q] IC50 under 10 µM? Item: O=C1c2ccccc2N(Cc2ccc(Cl)cc2)S(=O)(=O)N1Cc1ccccc1
[A] satisfied

[Q] Try this molecule too: Nc1ccn(C[C@@H](CO)OCP(=O)(O)O)c(=O)n1 [CIDOFOVIR]
[A] satisfied

[Q] Try this molecule too: O=C1c2ccccc2N(Cc2ccccc2Cl)S(=O)(=O)N1Cc1ccccc1
[A] not satisfied

[Q] Try this molecule too: O=C1c2ccccc2N(COCc2ccccc2)S(=O)(=O)N1COCc1ccccc1
[A] not satisfied

[Q] Try this molecule too: O=C1c2ccccc2N(Cc2ccccc2Cl)S(=O)(=O)N1Cc1ccccc1Cl
[A] not satisfied

[Q] Try this molecule too: O=S1(=O)N=C(OCc2ccccc2)c2ccccc2N1Cc1ccccc1
[A] satisfied

[Q] Try this molecule too: O=C1c2ccccc2N(Cc2ccc(Cl)cc2)S(=O)(=O)N1Cc1ccc(Cl)cc1
[A] satisfied

[Q] Try this molecule too: O=C(OCOCN1c2ccccc2C(=O)N(Cc2ccccc2)S1(=O)=O)c1ccccc1
[A] not satisfied

[Q] Try this molecule too: O=S1(=O)N=C(OCc2ccccc2)c2ccccc2N1Cc1ccc(Cl)c(Cl)c1
[A] not satisfied

[Q] Try this molecule too: O=C1c2ccccc2N(Cc2ccccc2)S(=O)(=O)N1Cc1ccccc1Cl
[A] not satisfied

[Q] Try this molecule too: O=C1c2ccccc2N(Cc2ccccc2)S(=O)(=O)N1Cc1ccc(Cl)cc1
[A] satisfied
